- Test system: T47D
- assay-comment: NCI tumour cell line growth inhibition, 48 h
Activity calls are given as the source filed them. Cut-off read from the data, not from the text of the source: active = GI50 up to about 1.1 µM and inactive = higher.

| compound | experimental-target | GI50 |
| --- | --- | --- |
| COC(=O)CCc1ccc2c(c1)[C@H](C(=O)OC)[C@@H](c1ccc(O)cc1)O2 | T47D | 78.2 µM (inactive) |
| Cc1ccc(C)c2c1n1c(=O)n(C)c(=O)n21 | T47D | > 100 µM (inactive) |
| O=C1C(OC(=O)c2ccccc2)=C(c2ccc(O)cc2)C(=O)C(OC(=O)c2ccccc2)=C1c1ccc(O)cc1 | T47D | > 100 µM (inactive) |
| CC(=C(C(N)=O)C(N)=O)C1C=C(c2cccs2)CC(c2ccc(Cl)cc2)=C1O (stereo unspecified) | T47D | 9.84 µM (inactive) |
| CCOP(=O)(OCC)C1(O)CC(n2cc(C)c(=O)[nH]c2=O)OC1CO (stereo unspecified) | T47D | > 100 µM (inactive) |
| CC(=O)/C(=C/N1CCNC1=S)C(=O)Nc1ccccc1C | T47D | > 100 µM (inactive) |
| C/C(=N/NC(=S)N(C)C)c1ccccc1O | T47D | 14.5 µM (inactive) |
| C/C(=C\CNc1ncnc2[nH]c(Cl)nc12)CO | T47D | > 100 µM (inactive) |
| CCCCON1C[C@@H](O)C(O)[C@@H](O)C1 (stereo partly specified) | T47D | > 100 µM (inactive) |
| COc1ccc(-n2c(=O)n(C)c(=O)n2-c2c(C)c(C)c(C)c(C)c2C)cc1 | T47D | > 100 µM (inactive) |
| CC1(C)N=c2c(ncn2CCO)=C(C(N)=O)N1 | T47D | > 100 µM (inactive) |

====

- Test system: Hs-578T
- assay-comment: NCI tumour cell line growth inhibition, 48 h
Active and inactive are the calls of the source. Rule as the data show it: active = GI50 up to about 1.1 µM and inactive = higher.
Catalogue of GI50 values

| molecule | GI50 |
| --- | --- |
| Oc1c(Br)cc(CN(Cc2cc(Br)c(O)c(Br)c2)C2CCCCC2)cc1Br | > 100 µM (inactive) |
| COC(=O)CCc1ccc2c(c1)[C@H](C(=O)OC)[C@@H](c1ccc(O)cc1)O2 | > 100 µM (inactive) |
| COc1ccc2c(c1)CCc1c-2n(CCN(C)C)c2ccc(OC)cc12 | 21.4 µM (inactive) |
| CCCc1cc(-c2ccc(-c3cc(CCC)c(C=O)[nH]3)s2)[nH]c1C=O | 41.2 µM (inactive) |
| CCC1c2[nH]c3ccccc3c2C[C@H]2C(=O)NC(CCCCNC(=O)OC(C)(C)C)C(=O)N12 (stereo partly specified) | 19.7 µM (inactive) |
| COc1ccc(NC2=CC(=O)C(=O)c3ccccc32)nn1 | 1.99 µM (inactive) |
| CC1(C)OCC(C2OC3OC(C)(C)OC3C2c2ccccc2)O1 (stereo unspecified) | 20.7 µM (inactive) |
| C/C=C/OC1C(C2COC(C)(C)O2)OC2OC(C)(C)OC21 (stereo unspecified) | > 100 µM (inactive) |
| Cc1ccc(O)c(C2=NNC(c3cccc(Cl)c3)C2)c1 (stereo unspecified) | 30.5 µM (inactive) |
| OCCN(CCO)c1ncnc2[nH]cnc12 | 53.6 µM (inactive) |
| Cc1cc(=O)oc2cc(OC(=O)Nc3ccccc3)ccc12 | 64.4 µM (inactive) |
| N#CSC#Cc1ccc(C#CSC#N)cc1 | 15.7 µM (inactive) |
| C=C(CC[C@@H](C)[C@H]1CC[C@@]2(C)C3=C(CC[C@]12C)[C@@]1(C)CC[C@H](O)[C@@H](C)C1CC3)C(C)C (stereo partly specified) | 1.6 µM (inactive) |
| O=C1NC(c2ccccc2)C1N(Cc1ccccc1)Cc1ccccc1 (stereo unspecified) | 61.2 µM (inactive) |
| COCCOCCOC1=C(Cl)C(=O)c2c(O)ccc(O)c2C1=O | 3.11 µM (inactive) |
| Cc1ccc(C(=O)N(C(C)C)C(C)C)cc1/N=N/N(C)C | 96.6 µM (inactive) |
